target: Beta-secretase 1 (Homo sapiens, UniProt P56817); experiment: Inhibition of human recombinant BACE1 at 2.5 uM by fluorimetric assay
Sequence (P56817 whole entry): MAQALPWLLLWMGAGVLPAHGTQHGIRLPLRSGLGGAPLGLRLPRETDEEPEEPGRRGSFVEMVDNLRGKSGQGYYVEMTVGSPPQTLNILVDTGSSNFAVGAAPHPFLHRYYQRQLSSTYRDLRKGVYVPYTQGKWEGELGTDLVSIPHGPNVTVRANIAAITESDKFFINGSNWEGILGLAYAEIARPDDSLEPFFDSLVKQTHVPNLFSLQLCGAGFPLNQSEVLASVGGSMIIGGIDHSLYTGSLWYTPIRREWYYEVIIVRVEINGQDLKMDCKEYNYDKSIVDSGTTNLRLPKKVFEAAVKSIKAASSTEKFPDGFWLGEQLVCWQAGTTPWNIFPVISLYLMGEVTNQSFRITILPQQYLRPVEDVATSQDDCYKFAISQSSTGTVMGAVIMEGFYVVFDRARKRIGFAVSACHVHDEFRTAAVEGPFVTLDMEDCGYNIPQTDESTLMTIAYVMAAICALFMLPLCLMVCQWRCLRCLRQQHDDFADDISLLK
The source made the active and inactive calls. The calls are words filed in the database; no cut-off is given here.

Smiles string | inhibition
Cl.Nc1c2c(nc3cc(Cl)ccc13)CCCC2 | inactive
COC(=O)CCc1ccc2nc(-c3ccccc3)c3c(c2c1)OCCC3 | inactive
Cl.Cl.Cl.O=C(CCc1ccc2nc(-c3ccccc3)c3c(c2c1)OCCC3)NCCCCCCCNc1c2c(nc3cc(Cl)ccc13)CCCC2 | 34.4%
Cl.Cl.Cl.O=C(CCc1ccc2nc(-c3ccccc3)c3c(c2c1)OCCC3)NCCCCCCNc1c2c(nc3cc(Cl)ccc13)CCCC2 | 19.6%
